target: human TLR2 (Homo sapiens); construct: host or cells: HEK-Blue hTLR2 (HEK-293); experiment: HEK-Blue hTLR2 antagonism assay (SEAP reporter) with agonist Pam2CSK4 (TLR2/6 agonist); assay type: cell-based; conditions: Table B; HEK-Blue hTLR2 cells, ~3×EC50 Pam2CSK4, 18 h, SEAP OD 655 nm, 8-point dilutions
Measurement Name: IC50 (µM)
Field: numeric (µM). Do not append units.

O=Cc1cc(C(=O)Nc2ccc(N3CC4CC4C3)cc2)cc(F)c1O (centres unmarked) ... 1.6
O=Cc1cc(C(=O)Nc2ccc(N3C4CCC3CC4)cc2)cc(F)c1O ... 3.7

Please examine the following record next.
response.value for "O=Cc1cc(C(=O)Nc2ccc(N3C[C@H]4CCC[C@H]4C3)nc2)cc(F)c1O" (field: IC50) = 1.7

###

Recorded IC50, one value per entry.
molecular target: human TLR2 (Homo sapiens, UniProt O60603); construct: host or cells: HEK-Blue hTLR2 (HEK-293); assay: HEK-Blue hTLR2 antagonism assay (SEAP reporter) with agonist Pam3CSK4 (TLR1/2 agonist); type: cell-based; conditions: Table B; HEK-Blue hTLR2 cells, ~3×EC50 Pam3CSK4, 18 h, SEAP OD 655 nm, 8-point dilutions
Sequence (O60603 21-784): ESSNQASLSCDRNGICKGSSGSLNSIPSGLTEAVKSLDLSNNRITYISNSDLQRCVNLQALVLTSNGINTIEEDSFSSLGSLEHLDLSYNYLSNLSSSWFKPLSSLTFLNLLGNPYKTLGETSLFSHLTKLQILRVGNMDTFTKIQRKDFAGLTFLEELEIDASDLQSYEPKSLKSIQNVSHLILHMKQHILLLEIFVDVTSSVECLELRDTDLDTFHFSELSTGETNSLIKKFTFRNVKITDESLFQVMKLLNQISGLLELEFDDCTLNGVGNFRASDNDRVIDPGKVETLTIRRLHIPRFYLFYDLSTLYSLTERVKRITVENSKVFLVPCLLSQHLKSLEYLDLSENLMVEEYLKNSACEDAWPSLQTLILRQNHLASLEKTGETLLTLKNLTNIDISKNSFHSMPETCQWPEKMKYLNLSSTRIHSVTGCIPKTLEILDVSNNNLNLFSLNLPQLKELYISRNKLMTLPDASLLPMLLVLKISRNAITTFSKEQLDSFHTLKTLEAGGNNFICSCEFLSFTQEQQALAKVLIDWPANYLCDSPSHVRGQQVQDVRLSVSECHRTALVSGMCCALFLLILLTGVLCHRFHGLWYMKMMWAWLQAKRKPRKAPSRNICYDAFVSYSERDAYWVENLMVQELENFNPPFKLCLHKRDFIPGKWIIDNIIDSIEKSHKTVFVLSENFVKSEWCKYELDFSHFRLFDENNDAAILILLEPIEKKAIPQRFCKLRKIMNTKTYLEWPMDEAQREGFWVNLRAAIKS
Field: numeric (µM). Do not append units.

O=Cc1cc(C(=O)Nc2ccc(N3CCc4ccccc4C3)cc2)cc(F)c1O ... 0.7
O=Cc1cc(C(=O)Nc2ccc(N3CCOc4ccccc43)cc2)cc(F)c1O ... 1.9
O=Cc1cc(C(=O)Nc2ccc(N3CCCC3)c(C(F)(F)F)c2)cc(F)c1O ... 1.6
O=Cc1cc(C(=O)Nc2cnc(N3CCCC3)nc2)cc(F)c1O ... 19.8
CC1(C)CN(c2ccc(NC(=O)c3cc(F)c(O)c(C=O)c3)cn2)c2ccc(F)cc21 ... 0.5

Measured on human TLR2 (Homo sapiens, UniProt O60603), "CC1(C)CN(c2ccc(NC(=O)c3cc(F)c(O)c(C=O)c3)cn2)c2ccccc21" has a documented IC50 of 0.4

Measured on human TLR2 (Homo sapiens, UniProt O60603), "O=Cc1cc(C(=O)Nc2ccc(N3CCC(F)(F)C3)cc2)cc(F)c1O" has a documented IC50 of 1.2

Measured on human TLR2 (Homo sapiens, UniProt O60603), "COc1cc(C#Cc2ccc(N3CCCC3)cc2)cc(O)c1C=O" has a documented IC50 of 20.8

###

molecular target: human TLR9 (Homo sapiens, UniProt Q9NR96); construct: host or cells: HEK-Blue hTLR9 (HEK-293); assay: HEK-Blue hTLR9 assay (SEAP reporter) with agonist ODN 2006; format: cell-based; conditions: Table A; HEK-Blue hTLR9 cells, ~3×EC50 ODN 2006, 18 h; exact values 8-point dilutions, approximate (~ or <) 4-point dilutions; read-out: ~IC50 (μM) with ODN2006
Sequence (Q9NR96 26-1032): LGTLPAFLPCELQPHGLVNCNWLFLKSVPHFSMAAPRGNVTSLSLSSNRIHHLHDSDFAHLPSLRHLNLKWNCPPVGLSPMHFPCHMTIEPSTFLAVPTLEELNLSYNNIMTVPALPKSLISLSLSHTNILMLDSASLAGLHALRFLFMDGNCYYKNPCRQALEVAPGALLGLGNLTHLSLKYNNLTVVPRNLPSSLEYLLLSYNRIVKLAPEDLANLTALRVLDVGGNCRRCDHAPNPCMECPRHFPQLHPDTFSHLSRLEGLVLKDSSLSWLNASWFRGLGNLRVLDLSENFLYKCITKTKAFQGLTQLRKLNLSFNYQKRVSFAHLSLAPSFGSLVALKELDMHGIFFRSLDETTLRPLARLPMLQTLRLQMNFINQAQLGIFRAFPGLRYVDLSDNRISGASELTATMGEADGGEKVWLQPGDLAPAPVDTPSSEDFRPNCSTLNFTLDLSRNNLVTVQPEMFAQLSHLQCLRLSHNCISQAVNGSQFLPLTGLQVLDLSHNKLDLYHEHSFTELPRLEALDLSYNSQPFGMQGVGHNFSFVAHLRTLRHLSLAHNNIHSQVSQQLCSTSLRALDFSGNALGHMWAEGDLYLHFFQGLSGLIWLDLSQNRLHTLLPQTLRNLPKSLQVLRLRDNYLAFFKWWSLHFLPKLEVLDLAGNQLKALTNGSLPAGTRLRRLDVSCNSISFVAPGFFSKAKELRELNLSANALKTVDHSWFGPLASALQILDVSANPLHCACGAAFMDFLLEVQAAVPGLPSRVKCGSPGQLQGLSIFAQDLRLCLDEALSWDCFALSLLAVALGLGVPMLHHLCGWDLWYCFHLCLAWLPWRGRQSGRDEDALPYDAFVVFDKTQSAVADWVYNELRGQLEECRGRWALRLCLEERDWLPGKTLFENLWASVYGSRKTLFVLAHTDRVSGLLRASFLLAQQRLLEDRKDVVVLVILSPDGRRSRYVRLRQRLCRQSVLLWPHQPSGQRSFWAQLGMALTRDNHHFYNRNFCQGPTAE
Recorded IC50, one value per entry.

O=Cc1cc(-c2nsc(-c3ccc(N4CCCC4)cc3)n2)cc(F)c1O ... < 1.2 µM
O=Cc1cc(-c2nc(-c3ccccc3)ns2)cc(F)c1O ... ~1.4 µM
O=Cc1cc(-c2cc(-c3ccc(N4CCCC4)cc3)cs2)cc(F)c1O ... < 1.2 µM
COc1cc(-c2cnn(-c3ccccc3)c2)cc(O)c1F ... > 33 µM

Please examine the following record next.
Measured on human TLR9 (Homo sapiens, UniProt Q9NR96), "O=Cc1cc(-c2csc(-c3ccc(N4CCCC4)cc3)n2)cc(F)c1O" has a documented IC50 of 0.3 µM

###

Recorded IC50, one value per entry.
molecular target: human TLR9 (Homo sapiens); construct: host or cells: HEK-Blue hTLR9 (HEK-293); experiment: HEK-Blue hTLR9 assay (SEAP reporter) with agonist ODN 2006; format: cell-based; details: Table A; HEK-Blue hTLR9 cells, ~3×EC50 ODN 2006, 18 h; exact values 8-point dilutions, approximate (~ or <) 4-point dilutions; read-out: ~IC50 (μM) with ODN2006

Examples with answers:
Cc1cc(-c2cnn(-c3ccccc3)c2)cc(C#N)c1O [Compound A12] ... > 33 µM
O=Cc1cc(-n2cc(-c3cccc(N4CCCC4)c3)nn2)cc(F)c1O [Compound A44] ... ~1.2 µM
O=Cc1cc(-c2nnc(-c3ccccc3)s2)cc(F)c1O [Compound A94] ... < 1.2 µM
COc1cc(-c2cnn(Cc3ccccn3)c2)cc(C=O)c1O [Compound A8] ... > 33 µM
O=Cc1cc(-c2csc(-c3ccc(N4CCCC4)cc3)c2)cc(F)c1O [Compound A52] ... < 1.2 µM
CN1CCN(/N=C/c2cc(-c3ccn(-c4ccccc4)n3)cc(F)c2O)CC1 [Compound A33] ... ~4 µM

Please examine the following record next.
response.value for O=Cc1cc(-c2cnc(-c3ccccc3)s2)cc(F)c1O [Compound A91] (field: IC50) = < 1.2 µM

###

biological target: human TLR2 (Homo sapiens, UniProt O60603); construct: host or cells: HEK-Blue hTLR2 (HEK-293); assay: HEK-Blue hTLR2 antagonism assay (SEAP reporter) with agonist Pam3CSK4 (TLR1/2 agonist); assay type: cell-based; conditions: Table A; HEK-Blue hTLR2 cells, ~3×EC50 Pam3CSK4, 18 h, SEAP OD 655 nm, 8-point dilutions
Recorded IC50, one value per entry.

Examples with answers:
O=Cc1cc(-n2cc(-c3ccc(N4CCCC4)cc3)nn2)cc(F)c1O [Compound A42] ... 0.3 µM
O=Cc1cc(-c2csc(-c3cccc(N4CCCC4)c3)n2)cc(F)c1O [Compound A124] ... 1 µM
COc1cc(-c2cnn(-c3ccccc3)c2)cc(C=O)c1O [Compound A1] ... 0.9 µM
O=Cc1cc(-c2cnc(-c3ccc(N4CCCC4)nc3)s2)cc(F)c1O [Compound A102] ... 1 µM
O=Cc1cc(-c2cnc(-c3cnc(N4CCCC4)c(C(F)(F)F)c3)s2)cc(F)c1O [Compound A114] ... 0.4 µM

Please examine the following record next.
response.value for O=Cc1cc(-c2cnc(-c3cccc(N4CCCC4)c3)s2)cc(F)c1O [Compound A101] (field: IC50) = 1 µM

###

molecular target: human TLR2 (Homo sapiens, UniProt O60603); construct: host or cells: HEK-Blue hTLR2 (HEK-293); test: HEK-Blue hTLR2 antagonism assay (SEAP reporter) with agonist Pam3CSK4 (TLR1/2 agonist); assay type: cell-based; details: Table A; HEK-Blue hTLR2 cells, ~3×EC50 Pam3CSK4, 18 h, SEAP OD 655 nm, 8-point dilutions
Measurement Name: log10(IC50) (log10 of the value in µM)
Note the log scale: values are log10 of IC50 expressed in µM.

O=Cc1cc(-c2cnc(-c3ccc(N4CCCC4)cc3)s2)cc(F)c1O ... -0.40
O=Cc1cc(-c2cnn(-c3ccc(N4CCCC4)cc3)c2)cc(F)c1O ... -0.30
O=Cc1cc(-c2nc(-c3ccccc3)cs2)cc(F)c1O ... 0.32
COc1cc(-c2ccn(-c3ccccc3)n2)cc(C=O)c1O ... 0.08

response.value for "O=Cc1cc(-c2csc(-c3ccc(N4CCCC4)cc3)n2)cc(F)c1O" (field: log10(IC50)) = -0.52

response.value for "Cc1nc(-c2ccc(N3CCCC3)nc2)sc1-c1cc(F)c(O)c(C=O)c1" (field: log10(IC50)) = 0.59

response.value for "O=Cc1cc(-c2nc(-c3ccc(N4CCCC4)cc3)ns2)cc(F)c1O" (field: log10(IC50)) = -0.40

response.value for "O=Cc1cc(-c2nsc(-c3ccc(N4CCCC4)cc3)n2)cc(F)c1O" (field: log10(IC50)) = 0.00

response.value for "O=Cc1cc(-c2cnn(-c3ccc(N4CCOCC4)cc3)c2)cc(F)c1O" (field: log10(IC50)) = 0.04

###

biological target: human TLR2 (Homo sapiens); construct: host or cells: HEK-Blue hTLR2 (HEK-293); assay: HEK-Blue hTLR2 antagonism assay (SEAP reporter) with agonist Pam3CSK4 (TLR1/2 agonist); assay type: cell-based; conditions: Table B; HEK-Blue hTLR2 cells, ~3×EC50 Pam3CSK4, 18 h, SEAP OD 655 nm, 8-point dilutions
Recorded IC50, one value per entry.
Field: numeric (µM). Do not append units.

Examples with answers:
O=Cc1cc(C(=O)Nc2ccc(N3CCC(N4CCCC4)CC3)cc2)cc(F)c1O ... 14.3
O=Cc1cc(NC(=O)Nc2ccc(N3CCCC3)cc2)cc(F)c1O ... 3.7
COc1cc(C#Cc2ccc(N3CCOCC3)cc2)cc(C=O)c1O ... 1.6
O=Cc1cc(NC(=O)Nc2ccccc2)cc(F)c1O ... 7.2
O=Cc1cc(C#Cc2ccc(N3CCCCC3)cc2)cc(F)c1O ... 0.3
O=Cc1cc(C(=O)Nc2ccccc2)cc(F)c1O ... 10.6
O=Cc1c(O)cc(C#Cc2ccc(N3CCCC3)cc2)cc1F ... 2.7
O=Cc1cc(C(=O)Nc2cccc(N3CCCCC3)c2)cc(F)c1O ... 2.4

response.value for "O=Cc1cc(C(=O)Nc2ccc(N3CC4(CCC4)C3)cc2)cc(F)c1O" (field: IC50) = 0.3
